# ASSAY TEXT: chemical genetic growth profiling, strain panel (AID 1159580);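 also: tested at 20 µM; growth read once vehicle control cultures reached saturation at 30 °C; 1 = growth at the plate median or of vehicle wells; lower values mean less growth of the strain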
# PARTICULARS: S. cerevisiae deletion strains, growth OD, locus YJR066W, strain TOR1, hits give low values
Screen size: about 5,500 compounds; about 2,000 (36%) were called active. Roughly 18% stayed inconclusive and do not appear here. This is one part of the list.
OUTCOME MEASURE: normalized growth
Please give the numeric answer without any surrounding text.

Consider the following illustrative entries.
NC(=O)CCCCC1CCSS1 (stereo not drawn) = 0.955
O=C(NC(=O)c1c(F)cccc1Cl)OCc1ccc(Cl)cc1Cl = 0.884
CC(=O)Nc1ccc([N+](=O)[O-])cc1[N+](=O)[O-] = 0.152

# get_value(readout='normalized growth', item= OC[C@@H]1CCCN2CCCC[C@H]12 )
0.967

From: PubChem BioAssay AID1159580
